target: furin, P09958; experiment: furin cleavage Z-score vs untreated control; higher = more cleavage, active = 3.5 or more, inactive = 1 or less, 8 variable residues between constant flanks; settings: 30 min;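 also: purified furin at 1:10 enzyme:substrate in 50 mM HEPES pH 7.5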
Sequence (P09958 whole entry): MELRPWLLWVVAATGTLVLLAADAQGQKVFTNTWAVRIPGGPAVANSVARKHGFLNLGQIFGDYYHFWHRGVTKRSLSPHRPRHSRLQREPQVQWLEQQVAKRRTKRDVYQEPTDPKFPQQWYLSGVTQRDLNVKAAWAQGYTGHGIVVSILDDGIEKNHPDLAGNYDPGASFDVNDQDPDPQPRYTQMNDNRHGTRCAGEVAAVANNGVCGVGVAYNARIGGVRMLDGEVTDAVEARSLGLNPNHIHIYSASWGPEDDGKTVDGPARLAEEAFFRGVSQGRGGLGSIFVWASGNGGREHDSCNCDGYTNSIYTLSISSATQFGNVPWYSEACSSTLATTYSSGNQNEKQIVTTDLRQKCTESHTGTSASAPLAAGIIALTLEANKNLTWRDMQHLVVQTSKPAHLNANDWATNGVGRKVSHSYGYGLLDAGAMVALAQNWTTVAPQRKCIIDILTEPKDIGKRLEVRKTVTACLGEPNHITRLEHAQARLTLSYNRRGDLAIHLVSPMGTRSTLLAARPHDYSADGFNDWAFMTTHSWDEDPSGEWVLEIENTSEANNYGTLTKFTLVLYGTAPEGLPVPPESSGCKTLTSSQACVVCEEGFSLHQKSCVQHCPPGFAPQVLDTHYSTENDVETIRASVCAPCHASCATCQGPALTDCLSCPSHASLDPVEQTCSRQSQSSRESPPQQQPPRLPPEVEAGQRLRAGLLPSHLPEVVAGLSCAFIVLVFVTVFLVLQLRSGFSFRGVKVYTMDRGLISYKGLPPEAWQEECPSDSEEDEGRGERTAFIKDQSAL
Some of the results follow. The true hit rate is not given.
Label f if furin cleavage Z-score falls below 2; label t in every other case.

CAQGERSRRLAGNASASA [FS-282] :: f

Entry CAKLKRSHELAGNASASA [FS-2868] : is its furin cleavage Z-score no less than 2?
f

Entry CARYKKAVFRAGNASASA [FS-3135] : is its furin cleavage Z-score no less than 2?
t

Entry CARKKRKPEEAGNASASA [FS-3192] : is its furin cleavage Z-score no less than 2?
f

Entry CAFSHRQVRYAGNASASA [FS-929] : is its furin cleavage Z-score no less than 2?
t
